These data points were gathered from patent US20240400546A1.

Listing of recorded IC50 by entry.
Biological target: SCD1 (Homo sapiens, UniProt O00767)
Construct: host or cells: S. cerevisiae ole1Δ strain, plasmid pRS316 with TDH3 promoter and CYC1 terminator
Sequence (O00767 whole entry): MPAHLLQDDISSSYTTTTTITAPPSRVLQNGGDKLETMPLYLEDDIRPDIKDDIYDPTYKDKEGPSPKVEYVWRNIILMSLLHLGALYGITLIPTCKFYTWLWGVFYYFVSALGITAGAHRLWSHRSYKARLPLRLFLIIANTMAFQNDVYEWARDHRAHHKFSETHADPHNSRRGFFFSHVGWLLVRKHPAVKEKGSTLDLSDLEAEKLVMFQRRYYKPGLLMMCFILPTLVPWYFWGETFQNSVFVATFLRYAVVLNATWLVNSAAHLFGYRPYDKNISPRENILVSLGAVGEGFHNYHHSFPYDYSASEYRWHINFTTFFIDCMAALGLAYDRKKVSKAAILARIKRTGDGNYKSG
Assay: Growth inhibition of humanized yeast expressing SCD1 as sole desaturase
Assay type: cell-based
Conditions: humanized yeast expressing human SCD1

// known answers, use as guide
| Given smiles | IC50 |
| --- | --- |
| CCOC(=O)N1CCC(c2nc(-c3ccc4cnn(C(C)C)c4c3)no2)CC1 | > 45 µM |
| CC(C)n1ncc2ccc(-c3nc(C4CCN(C(=O)c5ccc(Cl)cc5)CC4)no3)cc21 | > 45 µM |

Next, consider the following compound.
**Query** Any idea what its IC50 is? The compound is CC(C)CS(=O)(=O)N1CCC(c2nc(-c3ccc4cnn(C(C)C)c4c3)no2)CC1
**Result** > 45 µM
